- Test system: CD69+B220+ cells
- procedureText: B cell activation assay (IgD-stimulated splenocytes, CD69+B220+ cells by FACS)
- Type: cell-based
- assayConditions: 100 nM compound, mouse splenocytes, IgD 3 μg/mL, 4 h; 0.1 µM
quantityKind: CD69 @ 100 nM (% Inh)

Illustrative cases are given below, each with its answer.
{"compound": "Nc1ncnc2c1c(-c1ccc3[nH]cnc3c1)nn2C1CCc2ccccc2C1 (single isomer, unassigned) [Compound No. 19b]", "CD69 @ 100 nM (% Inh)": "36.67 ± 6.35 (n = 6) % Inh"}
{"compound": "C=CC(=O)N1CC(n2nc(-c3cc(O)cc(F)c3)c3c(N)ncnc32)Cc2cc(C)ccc21 (single isomer, unassigned) [31b]", "CD69 @ 100 nM (% Inh)": "−13.21 ± 4.55 (n = 3) % Inh"}
{"compound": "Nc1ncnc2c1c(-c1cc(O)cc(F)c1)nn2C1CCc2ccccc2C1 (single isomer, unassigned) [6b]", "CD69 @ 100 nM (% Inh)": "68.73 ± 21.60 (n = 6) % Inh"}
{"compound": "Nc1ncnc2c1c(-c1cc(O)cc(F)c1)nn2C1CCc2ccccc2C1 (single isomer, unassigned) [6a]", "CD69 @ 100 nM (% Inh)": "64.71 ± 19.01 (n = 6) % Inh"}

Now let's try a different one.
## Input Give recorded CD69 @ 100 nM (% Inh). Nc1ncnc2c1c(-c1ccc3[nH]cnc3c1)nn2C1CCc2ccccc2C1 (single isomer, unassigned) [Compound No. 19a]
## Output 24.62 ± 10.79 (n = 6) % Inh

###

- subjectOfTest: PI3Kδ (Homo sapiens)
- Construct: purchased Reaction Biology Corporation
- Sequence (O00329 whole entry): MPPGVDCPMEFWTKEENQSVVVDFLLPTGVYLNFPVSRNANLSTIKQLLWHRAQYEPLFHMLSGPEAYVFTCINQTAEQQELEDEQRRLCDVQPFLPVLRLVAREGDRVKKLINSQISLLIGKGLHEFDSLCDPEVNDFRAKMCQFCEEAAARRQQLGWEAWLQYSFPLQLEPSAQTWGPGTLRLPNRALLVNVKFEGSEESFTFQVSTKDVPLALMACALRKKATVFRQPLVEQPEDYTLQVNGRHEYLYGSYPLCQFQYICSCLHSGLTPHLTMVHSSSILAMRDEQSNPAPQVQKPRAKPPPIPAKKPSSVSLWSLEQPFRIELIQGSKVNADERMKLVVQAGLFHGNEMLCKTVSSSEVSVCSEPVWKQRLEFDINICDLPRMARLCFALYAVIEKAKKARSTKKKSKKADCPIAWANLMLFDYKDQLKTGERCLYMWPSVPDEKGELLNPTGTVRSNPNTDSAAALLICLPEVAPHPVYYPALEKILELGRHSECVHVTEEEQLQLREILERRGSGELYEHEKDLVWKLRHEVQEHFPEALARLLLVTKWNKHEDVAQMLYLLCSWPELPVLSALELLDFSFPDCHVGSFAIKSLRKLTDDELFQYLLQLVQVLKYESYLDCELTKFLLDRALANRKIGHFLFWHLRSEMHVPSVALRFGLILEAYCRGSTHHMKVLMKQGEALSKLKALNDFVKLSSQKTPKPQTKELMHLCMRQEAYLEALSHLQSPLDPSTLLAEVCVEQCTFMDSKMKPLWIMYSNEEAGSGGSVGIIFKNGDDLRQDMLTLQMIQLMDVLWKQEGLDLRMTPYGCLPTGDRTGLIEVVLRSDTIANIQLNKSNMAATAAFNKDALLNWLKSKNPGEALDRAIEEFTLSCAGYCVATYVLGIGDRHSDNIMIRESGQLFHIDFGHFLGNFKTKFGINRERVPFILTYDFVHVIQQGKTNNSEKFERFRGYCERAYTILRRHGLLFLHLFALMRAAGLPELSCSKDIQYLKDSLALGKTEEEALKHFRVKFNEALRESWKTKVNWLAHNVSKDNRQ
- Sequence (P27986 whole entry partner): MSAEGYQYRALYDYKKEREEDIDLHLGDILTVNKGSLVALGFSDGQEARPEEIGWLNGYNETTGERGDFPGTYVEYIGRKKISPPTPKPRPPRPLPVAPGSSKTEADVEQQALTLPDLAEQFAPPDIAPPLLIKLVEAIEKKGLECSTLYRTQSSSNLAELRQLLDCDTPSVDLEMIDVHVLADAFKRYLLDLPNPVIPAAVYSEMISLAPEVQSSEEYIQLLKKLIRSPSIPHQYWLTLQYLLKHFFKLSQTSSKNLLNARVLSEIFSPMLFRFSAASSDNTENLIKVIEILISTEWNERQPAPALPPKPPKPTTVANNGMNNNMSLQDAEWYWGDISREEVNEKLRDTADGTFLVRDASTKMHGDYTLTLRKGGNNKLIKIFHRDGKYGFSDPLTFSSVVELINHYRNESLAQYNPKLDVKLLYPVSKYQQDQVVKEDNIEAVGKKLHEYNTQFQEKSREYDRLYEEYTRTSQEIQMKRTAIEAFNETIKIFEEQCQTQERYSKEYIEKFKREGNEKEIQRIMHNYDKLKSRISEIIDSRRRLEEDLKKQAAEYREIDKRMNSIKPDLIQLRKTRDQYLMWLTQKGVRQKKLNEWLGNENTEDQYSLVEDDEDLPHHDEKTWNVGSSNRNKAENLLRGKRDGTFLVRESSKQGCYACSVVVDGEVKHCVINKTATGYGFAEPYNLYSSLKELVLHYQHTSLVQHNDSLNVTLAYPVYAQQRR
- procedureText: PI3Kδ kinase assay (HTRF, PIP3 detection)
- Assay type: biochemical
- assayConditions: 0.01 μM compound, 10 μM ATP
Criterion: PI3Kδ @ 0.01 μM (% Inh) meeting or surpassing 30 % Inh. Met: y. Not met: n.

## Input Given the entry Nc1ncnc2c1c(-c1cc(O)c(Cl)c(Cl)c1)nn2C1Cc2ccccc2C1 , answer whether its PI3Kδ @ 0.01 μM (% Inh) meets or surpasses 30 % Inh.
## Output y

## Input Does the molecule Nc1ncnc2c1c(-c1cc(F)c3c(c1)NCCO3)nn2C1Cc2ccc(F)cc2C1 (centres unmarked) have recorded PI3Kδ @ 0.01 μM (% Inh) that is 30 % Inh or more?
## Output n

## Input Is reported PI3Kδ @ 0.01 μM (% Inh) greater than or equal to 30 % Inh here: Nc1cc(-c2nn(C3Cc4ccccc4C3)c3ncnc(N)c23)cc(F)c1F
## Output n

## Input Confirm if PI3Kδ @ 0.01 μM (% Inh) reported for the molecule Nc1ncnc2c1c(-c1ccc(Cl)c(O)c1)cn2C1Cc2ccccc2C1 is 30 % Inh or above.
## Output n

## Input Textbook exercise: given the entry Nc1ncnn2c(C3Cc4ccccc4C3)cc(-c3cc(O)c(F)c(F)c3)c12 , state whether its PI3Kδ @ 0.01 μM (% Inh) is greater than or equal to 30 % Inh.
## Output n

###

- subjectOfTest: PI3Kγ (Homo sapiens)
- Sequence (P48736 whole entry, canonical isoform): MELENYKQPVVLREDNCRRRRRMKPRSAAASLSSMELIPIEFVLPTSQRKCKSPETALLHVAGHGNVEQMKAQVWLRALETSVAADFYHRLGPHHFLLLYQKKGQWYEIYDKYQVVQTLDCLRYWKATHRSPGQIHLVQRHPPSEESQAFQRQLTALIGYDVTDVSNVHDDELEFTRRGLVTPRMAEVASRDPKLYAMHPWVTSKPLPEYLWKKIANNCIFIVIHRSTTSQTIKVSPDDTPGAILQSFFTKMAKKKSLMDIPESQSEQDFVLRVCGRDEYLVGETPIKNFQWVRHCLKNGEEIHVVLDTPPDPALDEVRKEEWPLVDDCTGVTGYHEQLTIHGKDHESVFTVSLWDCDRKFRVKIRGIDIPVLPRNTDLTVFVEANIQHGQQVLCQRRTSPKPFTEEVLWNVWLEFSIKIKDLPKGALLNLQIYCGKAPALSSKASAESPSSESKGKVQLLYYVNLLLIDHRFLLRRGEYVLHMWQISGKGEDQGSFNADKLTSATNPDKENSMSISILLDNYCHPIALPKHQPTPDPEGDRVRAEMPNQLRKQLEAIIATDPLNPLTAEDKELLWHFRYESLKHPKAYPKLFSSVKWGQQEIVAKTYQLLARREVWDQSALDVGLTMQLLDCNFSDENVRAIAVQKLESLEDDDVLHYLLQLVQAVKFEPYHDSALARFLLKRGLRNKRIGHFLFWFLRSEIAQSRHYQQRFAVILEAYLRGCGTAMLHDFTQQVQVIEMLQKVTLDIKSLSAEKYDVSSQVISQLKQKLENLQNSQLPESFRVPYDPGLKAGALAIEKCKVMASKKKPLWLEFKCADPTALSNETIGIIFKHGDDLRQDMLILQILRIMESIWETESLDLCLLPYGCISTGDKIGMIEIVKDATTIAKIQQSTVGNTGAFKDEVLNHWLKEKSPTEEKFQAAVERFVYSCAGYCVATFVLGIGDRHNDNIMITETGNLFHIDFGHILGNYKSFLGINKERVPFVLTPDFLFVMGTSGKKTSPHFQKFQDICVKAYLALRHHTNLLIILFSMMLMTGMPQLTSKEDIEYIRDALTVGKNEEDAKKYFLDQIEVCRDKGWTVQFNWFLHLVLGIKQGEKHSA
- procedureText: PI3Kγ isoform profiling (PI3Kδ protocol)
- assayConditions: 10 dose IC50
quantityKind: IC50
Kindly format the answer as number then unit.

// known answers, use as guide
{"compound": "Nc1ncnc2c1c(-c1ccc(F)c(O)c1)nn2C1CCc2ccccc2C1 (single isomer, unassigned) [Compound No. 26b]", "observed": "455 nM"}
{"compound": "Nc1ncnc2c1c(-c1ccc(F)c(O)c1)nn2C1Cc2ccccc2C1", "observed": "196 nM"}
{"compound": "Nc1ncnc2c1c(-c1cc(O)cc(F)c1)nn2C1CCc2ccccc2C1 (stereo not drawn)", "observed": "122 nM"}
{"compound": "Nc1ncnc2c1c(-c1cc(O)cc(F)c1)nn2C1Cc2ccccc2C1", "observed": "53.5 nM"}
{"compound": "Nc1ncnc2c1c(-c1ccc(F)c(O)c1)nn2C1CCc2ccccc2C1 (single isomer, unassigned) [Compound No. 26a]", "observed": "405 nM"}

Now for another entry.
## Input Read off the recorded IC50 for C=CC(=O)N1CC(n2nc(-c3cc(O)cc(F)c3)c3c(N)ncnc32)Cc2cc(C)ccc21 (stereo not drawn)
## Output 6460 nM

###

- subjectOfTest: BTK (Homo sapiens)
- Construct: purchased Reaction Biology Corporation
- procedureText: BTK kinase assay (HotSpot, 33P ATP)
- Type: biochemical
- assayConditions: 0.1 μM compound, 10 μM ATP
quantityKind: BTK @ 0.1 μM (% Inh)
Your answer should be a number followed by the unit of measure.

{"compound": "NC(=O)c1cccc(-c2nn(C3CCc4ccccc4C3)c3ncnc(N)c23)c1 (stereo not shown)", "BTK @ 0.1 μM (% Inh)": "13.54 % Inh"}
{"compound": "COc1ncc(-c2nn(C3CCc4ccccc4C3)c3ncnc(N)c23)cc1F (stereo not shown)", "BTK @ 0.1 μM (% Inh)": "15.45 % Inh"}
{"compound": "Nc1ncnc2c(C3Cc4ccccc4C3)cn(-c3cc(O)c(F)c(F)c3)c12", "BTK @ 0.1 μM (% Inh)": "96.31 % Inh"}

## Input Give recorded BTK @ 0.1 μM (% Inh). N#Cc1ccc(-c2nn(C3Cc4ccccc4C3)c3ncnc(N)c23)cc1O
## Output 22.48 % Inh

###

- subjectOfTest: PI3Kδ (Homo sapiens)
- Construct: purchased Reaction Biology Corporation
- procedureText: PI3Kδ kinase assay (HTRF, PIP3 detection)
- Format: biochemical
- assayConditions: 1 μM compound, 10 μM ATP
Recorded PI3Kδ @ 1 μM (% Inh) values for a group of compounds are listed next.
Respond with the bare value in % Inh.

The examples below pair each entry with its known result.
{"structure": "COc1cc(-c2nn(C3Cc4ccccc4C3)c3ncnc(N)c23)cc(Cl)c1OC", "quantityKind": "PI3Kδ @ 1 μM (% Inh)", "observed": 29.99}
{"structure": "COc1ccc(-c2nn(C3Cc4ccccc4C3)c3ncnc(N)c23)c(OC)c1OC", "quantityKind": "PI3Kδ @ 1 μM (% Inh)", "observed": 13.54}
{"structure": "Nc1ncnc2c1c(-c1ccc3cc[nH]c3c1)nn2C1Cc2ccccc2C1", "quantityKind": "PI3Kδ @ 1 μM (% Inh)", "observed": 67.63}

Now examine the next entry.
## Input Supply recorded PI3Kδ @ 1 μM (% Inh) for CCOc1c(Cl)cc(-c2nn(C3Cc4ccccc4C3)c3ncnc(N)c23)cc1OC here.
## Output 16.5

###

- subjectOfTest: BTK (Homo sapiens)
- Construct: purchased Reaction Biology Corporation
- procedureText: BTK kinase assay (HotSpot, 33P ATP)
- Type: biochemical
- assayConditions: 0.1 μM compound, 10 μM ATP
Output Condition met for BTK @ 0.1 μM (% Inh) not less than 30 % Inh; output Condition not met otherwise.

Reference set (6 entries):
{"compound": "COc1ccc(-c2nn(C3Cc4ccccc4C3)c3ncnc(N)c23)c(OC)c1OC", "labelClass": "Condition not met"}
{"compound": "Nc1ncnc2c1c(-c1cc(O)cc(F)c1)nn2C1CCc2cc(F)ccc21 (centres unmarked)", "labelClass": "Condition not met"}
{"compound": "Nc1ccc2c(c1)CC(n1nc(-c3cc(O)c(F)c(F)c3)c3c(N)ncnc31)C2 (centres unmarked)", "labelClass": "Condition met"}
{"compound": "Nc1ncnc2c1c(-c1cc(O)cc(F)c1)nn2C1CCCc2ccccc21 (centres unmarked)", "labelClass": "Condition not met"}
{"compound": "Nc1ncnc2c1c(-c1ccc3cn[nH]c3c1)nn2C1CCc2ccccc2C1 (racemic)", "labelClass": "Condition not met"}
{"compound": "Nc1ncnc2c1c(-c1ccc3c(c1)NCCO3)nn2C1Cc2ccccc2C1", "labelClass": "Condition met"}

With those in mind, consider the next compound.
## Input Entry COc1cc(-c2nn(C3Cc4ccccc4C3)c3ncnc(N)c23)ccn1 : is its BTK @ 0.1 μM (% Inh) no less than 30 % Inh?
## Output Condition not met

###

- subjectOfTest: BTK (Homo sapiens, UniProt Q06187)
- Construct: purchased Reaction Biology Corporation
- Sequence (Q06187 whole entry): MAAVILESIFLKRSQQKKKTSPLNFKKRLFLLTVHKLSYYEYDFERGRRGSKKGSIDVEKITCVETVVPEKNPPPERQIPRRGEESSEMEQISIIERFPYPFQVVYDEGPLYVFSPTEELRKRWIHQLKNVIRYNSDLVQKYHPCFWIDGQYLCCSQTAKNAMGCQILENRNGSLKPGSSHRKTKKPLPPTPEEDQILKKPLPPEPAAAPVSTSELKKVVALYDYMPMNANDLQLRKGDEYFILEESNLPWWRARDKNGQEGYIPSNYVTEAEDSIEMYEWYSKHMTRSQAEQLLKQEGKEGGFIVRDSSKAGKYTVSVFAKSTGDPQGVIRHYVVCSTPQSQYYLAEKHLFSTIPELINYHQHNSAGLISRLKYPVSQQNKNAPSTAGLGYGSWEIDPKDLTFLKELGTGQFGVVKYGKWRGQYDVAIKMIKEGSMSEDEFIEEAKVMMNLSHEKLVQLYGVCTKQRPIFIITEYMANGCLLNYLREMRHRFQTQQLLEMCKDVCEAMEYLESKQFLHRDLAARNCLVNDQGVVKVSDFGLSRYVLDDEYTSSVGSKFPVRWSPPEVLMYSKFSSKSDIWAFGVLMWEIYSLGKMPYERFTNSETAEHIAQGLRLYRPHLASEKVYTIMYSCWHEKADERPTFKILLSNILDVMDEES
- procedureText: BTK kinase assay (HotSpot, 33P ATP)
- Assay type: biochemical
- assayConditions: 0.1 μM compound, 10 μM ATP
Doc: threshold 30 % Inh (exclusive). Items with BTK @ 0.1 μM (% Inh) beneath it return t; others return f.

Look over these answered cases.
{"compound": "C=CC(=O)N1CC(n2nc(-c3cnc(OC)c(F)c3)c3c(N)ncnc32)Cc2cc(C)ccc21 (centres unmarked)", "subjectOfTest": "BTK (Homo sapiens, UniProt Q06187)", "labelClass": "t"}
{"compound": "Nc1ncnc2c1c(-c1cc(O)c(F)c(F)c1)nn2C1Cc2cc(F)ccc2C1=O (centres unmarked)", "subjectOfTest": "BTK (Homo sapiens, UniProt Q06187)", "labelClass": "t"}
{"compound": "COc1cncc(-c2nn(C3Cc4ccccc4C3)c3ncnc(N)c23)c1", "subjectOfTest": "BTK (Homo sapiens, UniProt Q06187)", "labelClass": "t"}
{"compound": "N#Cc1cc(-c2nn(C3CCc4ccccc4C3)c3ncnc(N)c23)cc(O)c1F (centres unmarked)", "subjectOfTest": "BTK (Homo sapiens, UniProt Q06187)", "labelClass": "t"}
{"compound": "Nc1cc(-c2nn(C3Cc4ccccc4C3)c3ncnc(N)c23)ccc1F", "subjectOfTest": "BTK (Homo sapiens, UniProt Q06187)", "labelClass": "f"}

## Input BTK @ 0.1 μM (% Inh) strictly < 30 % Inh for this compound? Cc1ccc(-c2nn(C3Cc4ccccc4C3)c3ncnc(N)c23)cc1N
## Output f

## Input Just wondering, is BTK @ 0.1 μM (% Inh) of Nc1ncnc2c1c(-c1cc(F)c3c(c1)NCCO3)nn2C1CCc2ccccc2C1 (centres unmarked) below 30 % Inh?
## Output f

## Input Decide: BTK @ 0.1 μM (% Inh) of Nc1ncnc2c1c(-c1ccc(Br)c(O)c1)nn2C1CCc2ccccc21 (centres unmarked) [compound 36] strictly below 30 % Inh?
## Output f
